Test system: SR leukemia
Experiment: NCI-60 one-dose screen, 48 h (100 = growth as untreated, 0 = no growth, -100 = all killed)
Conditions: 10 µM unless noted
Method: Growth inhibition of the SR human tumor cell line is measured as a screen for anti-cancer activity. Cells are grown in 96 well plates and exposed to the test compound for 48 hours. Compounds are tested at a single concentration, which is 10^-5 M for most compounds. The reported endpoint is percent growth (GI% or GIPRCNT), where numbers from 0 - 100% represent growth inhibition, and numbers from -100% - 0 represent cell death. For example, a value of 40 represents 60% growth inhibition. […]
The panel holds about 83,000 compounds, 20% with a hit somewhere; the sample as a whole holds those more often.

# Molecule, Units, growth
measured = [
    ("CCCC[n+]1c(/C=C\\c2c(OC)cc(OC)cc2OC)ccc2ccccc21", "%", -34.6),
    ("CCN(CC)CCNC(Cc1ccccc1)c1ccc(OCc2ccccc2)cc1 (configuration not stated)", "%", 24.7),
    ("O=S(=O)(O)c1cnccn1", "%", 110),
    ("CN1CCC(CN2c3ccccc3Sc3ccccc32)C1 (configuration not stated)", "%", 79.2),
    ("CCCCCCCCCCCC1=NCCCN1CCCC", "%", 57.6),
    ("CCSc1nc2ccccc2o1", "%", 94.2),
    ("CC(=O)OC1CC2CCC1(C)C2(C)C (configuration not stated)", "%", 97.6),
]

====

tested on: EKVX NSCLC; test: NCI-60 one-dose screen, 48 h (100 = growth as untreated, 0 = no growth, -100 = all killed); settings: 10 µM unless noted
Compounds without any hit were thinned out: in the full panel of roughly 83,000, 20% have a hit.
We begin with a simple list: items and their reported growth.

# Compound, growth [%]
records = [
    ("CCCCCCCCCCCC[n+]1ccccc1 (tested in a mixture with another compound)", -20.5),
    ("CN(C)CCSC1=Nc2ccc(Cl)cc2C(c2ccccc2Cl)N(C)C1 (stereo not drawn)", 81),
    ("Cc1cccc2c(N)c3ccccc3nc12", 1.94),
    ("c1ccc(-c2cccc(-c3ccccn3)n2)nc1", 15.8),
    ("CN(C)c1ccc(/C=C/c2sc3ccc4ccccc4c3[n+]2C)cc1", -13.6),
    ("COc1cc(/C=C2\\SC(=S)N(/C=C/c3nc4ccccc4[nH]c3=O)C2=O)cc(OC)c1OC", 84.6),
    ("NC(=S)Nc1ccc2c(c1)Cc1ccccc1-2", 67.1),
    ("CCOC(=O)c1cc(CC)sc1NC(=O)CC(C)=O", 51),
    ("Cc1ccc(N2C(=O)C=CC2=O)cc1", 116),
    ("COc1cc(/C=C/c2ccnc3ccccc23)cc(OC)c1OC", 55.3),
    ("CC(CSc1n[nH]c(=S)s1)c1ccccc1 (stereo not drawn)", 107),
    ("CCOC(=O)c1[nH]c(C#N)c(C(=O)OCC)c1C", 93.3),
    ("NCCCN(CCCN)CCCNCc1c2ccccc2c(CNCCCN(CCCN)CCCN)c2ccccc12", 89.4),
    ("NC1=C(Br)C(=O)c2ncccc2C1=O", -14.2),
    ("O=C(c1ccccc1)c1cc2ccccc2oc1=O", 95.5),
    ("Cc1nn(CCO)c(C)c1N=[N+]([O-])c1c(C)nn(CCO)c1C", 23.4),
    ("OC(c1cc(C23CC4CC(CC(C4)C2)C3)nc2c(Cl)cc(Cl)cc12)C1CCCCN1 (stereo not drawn)", -33.6),
    ("Oc1ccc(Nc2ccc3ccccc3c2)cc1", 79),
    ("COc1c(C)c2c(c(O)c1C/C=C(\\C)CCC(=O)O)C(=O)OC2", 48.2),
    ("OC(CSc1ccccc1)CN1CCN(c2ccc(Cl)cc2)CC1 (stereo not drawn)", 95.2),
    ("N=C(N)Sc1cccc[n+]1[O-]", 47.7),
    ("CCN(CC)CC(O)c1cc(-c2ccc(Cl)cc2)nc2cc(Cl)ccc12 (stereo not drawn)", 60.5),
    ("CCOc1cc(F)c([N+](=O)[O-])cc1[N+](=O)[O-]", 101),
    ("COc1cc(/C=C/C(=O)CC(=O)/C=C/c2ccc(O)c(OC)c2)ccc1O", 67.6),
    ("COc1ccc(/C=C2/C(=O)ON=C2C)cc1", 109),
    ("O=C(O)c1cccc2cccc(-c3c4ccc(=O)c(O)c-4oc4c(O)c(O)ccc34)c12", 83.7),
    ("CCOC(=O)C1(C)CCCC1N (stereo not drawn)", 108),
    ("Oc1ccc2ccccc2c1N=Nc1ccccn1", 22.2),
    ("O=C(O)c1ccc2c(c1)C(=O)c1ccccc1C2=O", 102),
    ("Cc1c(O)ccc(SC#N)c1C", 121),
    ("O=[N+]([O-])C=C(c1ccccc1)c1ccccc1", 71),
    ("Oc1ccc(Cl)cc1C(c1cc(Cl)ccc1O)C(Cl)(Cl)Cl", 13.7),
    ("OC(c1cc(-c2ccc(Cl)cc2)nc2c(Cl)cccc12)C1CCCCN1 (stereo not drawn)", -32.9),
    ("NC(=S)N/N=C\\c1nccc2c(C(F)(F)F)cccc12", 1.87),
    ("COC(=O)c1cc([N+](=O)[O-])cc([N+](=O)[O-])c1Cl", 98.1),
    ("O=C(Cc1nc2cc(Cl)c(Cl)cc2nc1CC(=O)c1ccccc1)c1ccccc1", 51.4),
    ("O=C1C(=O)c2cc([N+](=O)[O-])ccc2-c2ccccc21", -88.8),
    ("O=C1C=CC(=O)c2c(O)c(CO)c(CO)c(O)c21", 105),
    ("CCCCCCCCCCCC[S+](C)CC(=O)[O-] (stereo not drawn)", 22.2),
    ("CCOc1ccc(Nc2nc3c(s2)C(=O)c2ccccc2C3=O)cc1", 96.4),
    ("CCCCCCCCCCCCCCCCCC[S+](C)CC (stereo not drawn)", 91.7),
    ("CC1(C)N=c2cc3c(cc2N1c1ccc(Cl)cc1)=Nc1ccccc1N3c1ccc(Cl)cc1", 52.9),
    ("CCCCOS(=O)(=O)c1ccccc1", 108),
    ("O=C1C=Cc2ccccc2/C1=C/c1nc(-c2ccccc2)oc1O", 78.7),
    ("CCN(CC)CC(O)CNc1ccc(NCC2CO2)c2c1C(=O)c1ccccc1C2=O (stereo not drawn)", 23.5),
    ("CN1CCC(c2ccccc2)(c2ccccc2)C(=O)C1", 47.3),
    ("Cn1ccc(=Nc2ccc(NC(=O)c3ccc(N=c4ccn(C)c5ccc([N+](=O)[O-])cc45)cc3)cc2)cc1", 77.5),
    ("O=C1Nc2ccc(Br)cc2C1=O", 101),
]
